Target or test system: T1, Macaca fascicularis PDGFRb.mmh (Macaca fascicularis)
T1 construct: Soluble monomeric construct; also called mfPDGFRb.mmh
T1 chain: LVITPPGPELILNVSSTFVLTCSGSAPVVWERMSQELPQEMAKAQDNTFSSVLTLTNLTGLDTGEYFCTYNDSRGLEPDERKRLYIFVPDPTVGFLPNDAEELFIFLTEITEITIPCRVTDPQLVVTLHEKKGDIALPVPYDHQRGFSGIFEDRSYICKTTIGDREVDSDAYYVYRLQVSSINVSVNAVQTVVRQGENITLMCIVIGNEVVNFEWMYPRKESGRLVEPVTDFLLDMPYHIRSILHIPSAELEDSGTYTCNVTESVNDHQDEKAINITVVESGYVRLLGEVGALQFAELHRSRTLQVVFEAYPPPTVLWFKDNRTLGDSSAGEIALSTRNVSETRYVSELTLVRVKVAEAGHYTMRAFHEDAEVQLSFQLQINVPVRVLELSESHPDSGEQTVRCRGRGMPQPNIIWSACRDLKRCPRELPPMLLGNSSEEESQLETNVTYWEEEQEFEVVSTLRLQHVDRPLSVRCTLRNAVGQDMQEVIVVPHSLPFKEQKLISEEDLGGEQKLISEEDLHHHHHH
Measurement protocol: SPR, mAb captured, 37 C

Binder: H4H3105S (antibody, human IgG4, V domains shown, human IgG4 Fc (H4H prefix)) VH: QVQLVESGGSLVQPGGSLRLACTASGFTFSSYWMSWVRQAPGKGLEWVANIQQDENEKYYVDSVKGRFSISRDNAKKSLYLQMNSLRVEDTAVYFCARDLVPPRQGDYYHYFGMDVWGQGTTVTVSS VL: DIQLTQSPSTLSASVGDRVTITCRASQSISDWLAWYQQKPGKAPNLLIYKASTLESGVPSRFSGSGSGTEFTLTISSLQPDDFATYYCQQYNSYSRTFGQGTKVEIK
Kd: 14.4 nM

Value source: patent US20170210813A1
